// provenance: paper PMC9742639

- target-system: GSK3b (Homo sapiens, UniProt P49841)
- Construct: GST; purchased SignalChem G09-10G
- Sequence (P49841 whole entry): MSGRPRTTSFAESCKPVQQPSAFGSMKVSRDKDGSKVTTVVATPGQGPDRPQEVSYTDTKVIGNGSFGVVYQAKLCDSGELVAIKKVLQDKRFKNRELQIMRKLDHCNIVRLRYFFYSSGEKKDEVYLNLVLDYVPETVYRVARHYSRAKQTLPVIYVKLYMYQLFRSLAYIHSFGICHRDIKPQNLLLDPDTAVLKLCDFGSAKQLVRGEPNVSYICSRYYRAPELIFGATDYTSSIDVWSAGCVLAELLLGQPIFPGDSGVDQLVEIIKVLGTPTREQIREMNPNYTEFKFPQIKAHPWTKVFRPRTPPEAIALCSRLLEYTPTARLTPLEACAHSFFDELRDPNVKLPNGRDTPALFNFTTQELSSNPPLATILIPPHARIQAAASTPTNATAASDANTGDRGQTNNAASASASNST
- assay-text: In vitro phosphorylation of nucleocapsid peptides, ADP-Glo
- Type: biochemical
- reported-conditions: Mean ± Standard deviation, n = 3; no peptide substrate 1995 ± 133
Square brackets hold non-standard residues; d marks the D form. Primed or numbered codes have the meaning given here. Ends that are not written are not given here. pS′ = not defined here; pT′ = not defined here
Answer each item with its documented Phosphorylation by GSK3b (Table 2).

substance: SSRSRNSSRNS(pT)PG (SSRSRNSSRNS[pT′]PG) [SCV2-N [187-200] - pT198, synthetic peptide modeled after SARS-CoV-2 nucleocapsid phosphorylation sites, pre-phosphorylated at T198]
Phosphorylation by GSK3b (Table 2): 23,031 ± 486
--
substance: SQASSRSSSR(pS)RNS (SQASSRSSSR[pS′]RNS) [SCV2-N [180-193] - pS190, synthetic peptide modeled after SARS-CoV-2 nucleocapsid phosphorylation sites, pre-phosphorylated at S190]
Phosphorylation by GSK3b (Table 2): 2957 ± 3
--
substance: RGGSQASSRSS(pS)RS (RGGSQASSRSS[pS′]RS) [SCV2-N [177-190] - pS188, synthetic peptide modeled after SARS-CoV-2 nucleocapsid phosphorylation sites, pre-phosphorylated at S188]
Phosphorylation by GSK3b (Table 2): 24,585 ± 645

# evaluate next
Answer briefly: Phosphorylation by GSK3b (Table 2) recorded on GSK3b (Homo sapiens, UniProt P49841) for RNSTPGSSRGT(pS)PAR (RNSTPGSSRGT[pS′]PAR) [SCV2-N [195-209] - pS206, synthetic peptide modeled after SARS-CoV-2 nucleocapsid phosphorylation sites, pre-phosphorylated at S206]
24,082 ± 381
